target: α1β2γ2 GABAA receptors (Homo sapiens, UniProt P14867+P18507+P47870); construct: expressed in transfected cells; assay: Whole-cell patch clamp, potentiation of GABA EC20 currents at recombinant synaptic-type receptors (LTK cells); assay type: cell-based; settings: EC50, potentiation of GABA current, α1β2γ2, GABA EC20 (2 μM); n = 3
Sequence (P14867 28-456): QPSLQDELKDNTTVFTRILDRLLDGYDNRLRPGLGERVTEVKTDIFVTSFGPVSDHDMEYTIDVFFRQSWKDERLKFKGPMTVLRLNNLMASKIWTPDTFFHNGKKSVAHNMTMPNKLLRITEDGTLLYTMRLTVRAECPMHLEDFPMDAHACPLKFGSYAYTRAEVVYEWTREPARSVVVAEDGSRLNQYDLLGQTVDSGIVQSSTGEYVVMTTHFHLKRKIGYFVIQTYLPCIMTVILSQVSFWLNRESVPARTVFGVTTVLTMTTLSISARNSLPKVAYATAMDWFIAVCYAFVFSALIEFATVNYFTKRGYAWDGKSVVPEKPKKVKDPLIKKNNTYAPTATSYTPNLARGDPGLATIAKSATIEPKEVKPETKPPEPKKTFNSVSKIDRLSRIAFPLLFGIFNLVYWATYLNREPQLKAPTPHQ
Sequence (P47870 25-512 limits assumed): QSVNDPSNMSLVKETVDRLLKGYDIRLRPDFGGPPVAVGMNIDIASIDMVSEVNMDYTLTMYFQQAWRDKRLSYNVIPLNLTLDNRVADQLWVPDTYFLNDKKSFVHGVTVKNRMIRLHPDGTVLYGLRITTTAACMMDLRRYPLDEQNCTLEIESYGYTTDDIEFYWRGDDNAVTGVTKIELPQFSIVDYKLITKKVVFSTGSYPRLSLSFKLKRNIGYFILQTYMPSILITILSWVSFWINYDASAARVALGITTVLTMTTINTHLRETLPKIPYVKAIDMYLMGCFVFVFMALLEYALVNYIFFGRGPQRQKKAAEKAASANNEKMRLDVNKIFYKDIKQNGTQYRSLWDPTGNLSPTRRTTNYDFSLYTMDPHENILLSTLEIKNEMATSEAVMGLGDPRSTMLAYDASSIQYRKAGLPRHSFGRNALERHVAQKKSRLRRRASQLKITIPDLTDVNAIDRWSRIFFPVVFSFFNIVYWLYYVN
Sequence (P18507 40-475): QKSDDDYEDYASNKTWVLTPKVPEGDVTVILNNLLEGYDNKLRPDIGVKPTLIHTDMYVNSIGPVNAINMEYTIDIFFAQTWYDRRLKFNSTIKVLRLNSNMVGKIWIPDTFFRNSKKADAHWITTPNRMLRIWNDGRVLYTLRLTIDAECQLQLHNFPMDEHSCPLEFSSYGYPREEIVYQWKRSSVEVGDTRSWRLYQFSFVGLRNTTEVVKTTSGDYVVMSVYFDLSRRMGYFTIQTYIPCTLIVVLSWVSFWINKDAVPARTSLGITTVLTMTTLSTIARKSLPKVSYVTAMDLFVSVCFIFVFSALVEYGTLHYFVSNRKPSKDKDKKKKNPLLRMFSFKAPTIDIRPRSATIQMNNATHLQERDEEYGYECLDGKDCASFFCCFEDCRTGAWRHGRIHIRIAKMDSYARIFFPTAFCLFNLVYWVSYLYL
pEC50: −log10 of the molar value.
Entries annotated with measured pEC50

- RECORD SMILES: "CC(=O)[C@H]1CC[C@H]2[C@@H]3CC[C@H]4C[C@H](O)CC[C@]4(C)[C@H]3CC[C@]12C"
  pEC50: 6.94
- RECORD SMILES: "CC(=O)[C@H]1CC[C@H]2[C@@H]3CC[C@H]4C[C@](C)(O)CC[C@]4(C)[C@H]3CC[C@]12C"
  pEC50: 6.59

###

target: α4β3δ GABAA receptors (Homo sapiens, UniProt O14764+P28472+P48169); construct: expressed in transfected cells; host or cells: CHO cells (transient transfection, Lipofectamine); assay: Whole-cell patch clamp, potentiation of GABA EC20 currents at recombinant extrasynaptic-type receptors (CHO cells); format: cell-based
Sequence (P48169 36-554): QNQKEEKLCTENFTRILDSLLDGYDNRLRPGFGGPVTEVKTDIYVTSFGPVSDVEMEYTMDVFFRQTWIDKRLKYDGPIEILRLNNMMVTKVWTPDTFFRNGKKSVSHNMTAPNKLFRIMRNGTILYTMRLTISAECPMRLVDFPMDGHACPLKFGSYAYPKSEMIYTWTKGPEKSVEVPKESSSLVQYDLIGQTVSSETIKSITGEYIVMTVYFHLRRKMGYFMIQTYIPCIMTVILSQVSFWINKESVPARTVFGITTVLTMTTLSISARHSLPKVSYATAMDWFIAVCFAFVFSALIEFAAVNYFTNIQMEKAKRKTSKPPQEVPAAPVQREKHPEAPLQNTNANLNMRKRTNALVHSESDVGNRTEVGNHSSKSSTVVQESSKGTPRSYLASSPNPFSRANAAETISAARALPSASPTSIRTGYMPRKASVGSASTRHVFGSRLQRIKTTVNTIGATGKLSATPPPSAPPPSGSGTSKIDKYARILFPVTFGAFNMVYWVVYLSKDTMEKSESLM
Sequence (P28472 26-473): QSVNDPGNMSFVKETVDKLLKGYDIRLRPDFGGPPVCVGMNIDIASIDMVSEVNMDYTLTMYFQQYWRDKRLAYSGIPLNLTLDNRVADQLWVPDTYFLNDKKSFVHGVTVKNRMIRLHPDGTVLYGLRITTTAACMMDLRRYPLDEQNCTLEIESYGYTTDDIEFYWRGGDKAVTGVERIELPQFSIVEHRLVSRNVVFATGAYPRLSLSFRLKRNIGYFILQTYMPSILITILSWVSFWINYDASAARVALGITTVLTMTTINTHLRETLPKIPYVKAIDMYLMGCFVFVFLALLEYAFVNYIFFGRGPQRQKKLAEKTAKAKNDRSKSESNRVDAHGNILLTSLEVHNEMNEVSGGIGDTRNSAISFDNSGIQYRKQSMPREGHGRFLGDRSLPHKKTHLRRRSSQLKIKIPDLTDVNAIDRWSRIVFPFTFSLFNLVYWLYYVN
Sequence (O14764 25-452): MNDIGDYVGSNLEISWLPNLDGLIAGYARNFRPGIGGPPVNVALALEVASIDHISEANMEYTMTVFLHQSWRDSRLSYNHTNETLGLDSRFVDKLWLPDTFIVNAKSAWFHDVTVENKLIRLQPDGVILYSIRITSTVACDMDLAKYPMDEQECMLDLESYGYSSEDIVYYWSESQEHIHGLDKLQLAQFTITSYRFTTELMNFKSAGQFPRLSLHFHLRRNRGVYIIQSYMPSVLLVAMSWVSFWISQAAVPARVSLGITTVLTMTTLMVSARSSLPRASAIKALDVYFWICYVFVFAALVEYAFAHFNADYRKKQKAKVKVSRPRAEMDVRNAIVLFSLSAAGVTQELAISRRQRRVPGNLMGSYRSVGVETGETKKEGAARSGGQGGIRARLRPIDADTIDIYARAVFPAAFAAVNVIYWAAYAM
pEC50: −log10 of the molar value.
READOUT KIND: pEC50

- RECORD SMILES: "CC(=O)[C@H]1CC[C@H]2[C@@H]3CC[C@H]4C[C@](C)(O)CC[C@]4(C)[C@H]3CC[C@]12C"
  TARGET OR SYSTEM: "α4β3δ GABAA receptors (Homo sapiens, UniProt O14764+P28472+P48169)"
  OBSERVED: 7.03
- RECORD SMILES: "CC(=O)[C@H]1CC[C@H]2[C@@H]3CC[C@H]4C[C@H](O)CC[C@]4(C)[C@H]3CC[C@]12C"
  TARGET OR SYSTEM: "α4β3δ GABAA receptors (Homo sapiens, UniProt O14764+P28472+P48169)"
  OBSERVED: 7.24

###

target: α4β3δ GABAA receptors (Homo sapiens, UniProt O14764+P28472+P48169); construct: expressed in transfected cells; host or cells: CHO cells (transient transfection, Lipofectamine); assay: Whole-cell patch clamp, potentiation of GABA EC20 currents at recombinant extrasynaptic-type receptors (CHO cells); assay type: cell-based; details: GABA EC20 (2 μM); n = 3; read-out: EC50, potentiation of GABA current, α4β3δ

- COMPOUND: "C[C@@]1(O)CC[C@H]2[C@H](CC[C@@H]3[C@@H]2CC[C@]2(C)[C@@H](C(=O)Cn4nccn4)CC[C@@H]32)C1 [SGE-516]"
  TARGET OR SYSTEM: "α4β3δ GABAA receptors (Homo sapiens, UniProt O14764+P28472+P48169)"
  EC50, nM: 193
